# measurement-target: T1, biotinylated human B7-H7 protein (Acro Biosystems, B77-H82F5) (human, UniProt Q9UM44 23-344, biotinylated)
# T1 construct: Bought soluble protein; also called biotin-B7H7 protein
# T1 sequence (looked up): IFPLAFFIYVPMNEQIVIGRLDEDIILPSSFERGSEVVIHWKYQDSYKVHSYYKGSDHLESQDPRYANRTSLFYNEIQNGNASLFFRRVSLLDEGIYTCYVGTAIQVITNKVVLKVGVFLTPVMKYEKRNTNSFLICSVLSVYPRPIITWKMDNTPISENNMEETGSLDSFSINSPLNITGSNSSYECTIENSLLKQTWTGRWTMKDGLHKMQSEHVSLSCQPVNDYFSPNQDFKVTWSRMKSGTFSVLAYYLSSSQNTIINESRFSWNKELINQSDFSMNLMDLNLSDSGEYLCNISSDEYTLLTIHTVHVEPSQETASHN
# assay-method-text: flow cytometry, blocking of biotinylated human B7-H7 binding to HEK-293/CD28H cells

- binder: "PR003260 (antibody, human IgG1, kappa, V domains shown, Human IgG1; also called 70F3B1) VH: QVQLVESGGGVVQPGRSLRLPCAASGFTFSRYGMHWVRQAPGKGLEWVADIWYDGSKKYYADSVKGRFTISRDNSKNTLYLQMNSLRAEDTAVYFCTRDGGYSYGPFDYWGQGTLVTVSS VL: EIVMTQSPATLSVSPGERATLSCRASQSVSSNLAWYQQKPGQAPRLLIYYASTRAPGIPARFSGSESGTEFTLTISSLQSEDFAVYYCQQYNIWPYTFGQGTKLEIKR"
  output-unit: "%"
  Maximum inhibition rate (%): 20.4
